Would you mind telling me the reported inhibition in vivo at 0.5 % strength of each entry?
# System: sebum
# Test Details: Testing and evaluation of the antiseborrhoeic effect: percentage sebum reduction from browning of the backs of male rats
# Format: in vivo
# Applied Conditions: Rattus norvegicus, 336 h; Concentration 0.5 % by weight; topical, male Wistar rats, 9 applications in 2 weeks
Show the value, then the unit it is measured in.

// inhibition in vivo at 0.5 % strength lookup, compound = COC(=O)c1ccc(OCCCC2CCCCC2)cc1 , result: 99%

// inhibition in vivo at 0.5 % strength lookup, compound = O=C(O)C=Cc1ccc(OCC2CCCCC2)cc1 , result: 15%

// inhibition in vivo at 0.5 % strength lookup, compound = OCC=Cc1ccc(OCC2CCCCC2)cc1 , result: 66%

// inhibition in vivo at 0.5 % strength lookup, compound = COC(=O)C=Cc1ccc(OCC2CCCCC2)cc1 , result: 29%
